Experimental target: TNFRSF9, Q07011
Experiment summary: Kd (SPR)
As shown below, each of these binders has a reported Kd value.
State just the number; it will be interpreted in nM.

Some binders with recorded Kd:
Binder	Value units	Kd
unnamed (protein) chain 1: EVQLVQSGAEVKKPGESLRISCKGSGYTFSSYWISWVRQMPGKGLEWMGKIYPGDSYTNYSPSFQGQVTISADKSISTAYLQWSSLKASDTAMYYCARGYGILDYWGQGTLVTVSS chain 2: SYELTQPPSVSVSPGQTASITCSGDNIGDQYAHWYQQKPGQSPVLVIYQDKNRPSGIPERFSGSNSGNTATLTISGTQAMDEADYYCATYTGFGSLAVFGGGTKLTVL	nM	59.4
unnamed (protein) chain 1: EVQLVQSGAEVKKPGESLRISCKGSGYTFSNYWISWVRQMPGKGLEWMGKIYPGDSYTNYSPSFQGQVTISADKSISTAYLQWSSLKASDTAMYYCARGYGIFDYWGQGTLVTVSS chain 2: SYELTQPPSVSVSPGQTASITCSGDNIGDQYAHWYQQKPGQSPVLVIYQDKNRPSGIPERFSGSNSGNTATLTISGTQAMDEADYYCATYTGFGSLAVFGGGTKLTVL	nM	86.4
unnamed (protein) chain 1: EVQLVQSGAEVKKPGESLRISCKGSGYTFSSYWISWVRQMPGKGLEWMGKIYPGNSYTNYSPSFQGQVTISADKSISTAYLQWSSLKASDTAMYYCARGDGVFDYWGQGTLVTVSS chain 2: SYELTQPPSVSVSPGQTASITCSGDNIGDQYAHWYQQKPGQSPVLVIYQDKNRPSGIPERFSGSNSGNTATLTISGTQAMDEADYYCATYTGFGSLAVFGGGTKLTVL	nM	32.9
unnamed (protein) chain 1: EVQLVQSGAEVKKPGESLRISCKGSGYTFSDYWISWVRQMPGKGLEWMGKIYPGDSYTNYSPSFQGQVTISADKSISTAYLQWSSLKASDTAMYYCARGYGLFDYWGQGTLVTVSS chain 2: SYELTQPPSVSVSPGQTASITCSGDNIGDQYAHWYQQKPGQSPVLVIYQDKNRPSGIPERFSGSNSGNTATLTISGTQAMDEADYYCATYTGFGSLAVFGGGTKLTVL	nM	84.1
unnamed (protein) chain 1: EVQLVQSGAEVKKPGESLRISCKGSGYSFSTYWISWVRQMPGKGLEWMGKIYPGDSYTNYSPSFQGQVTISADKSISTAYLQWSSLKASDTAMYYCARGWGVFDYWGQGTLVTVSS chain 2: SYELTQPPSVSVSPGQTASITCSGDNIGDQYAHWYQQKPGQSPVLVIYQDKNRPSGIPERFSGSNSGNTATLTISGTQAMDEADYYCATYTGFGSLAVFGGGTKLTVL	nM	122
unnamed (protein) chain 1: EVQLVQSGAEVKKPGESLRISCKGSGYSFSTYWISWVRQMPGKGLEWMGKIYPGDSYTNYSPSFQGQVTISADKSISTAYLQWSSLKASDTAMYYCARGVGIFDYWGQGTLVTVSS chain 2: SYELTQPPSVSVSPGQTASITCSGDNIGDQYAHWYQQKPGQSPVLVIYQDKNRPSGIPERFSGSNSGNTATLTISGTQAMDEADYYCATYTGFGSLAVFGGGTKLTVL	nM	158

Problem: Name the reported Kd value associated with the binder unnamed (protein) chain 1: EVQLVQSGAEVKKPGESLRISCKGSGYSFSTYWISWVRQMPGKGLEWMGKIYPGDSYTNYSPSFQGQVTISADKSISTAYLQWSSLKASDTAMYYCSRGYGIFDYWGQGTLVTVSS chain 2: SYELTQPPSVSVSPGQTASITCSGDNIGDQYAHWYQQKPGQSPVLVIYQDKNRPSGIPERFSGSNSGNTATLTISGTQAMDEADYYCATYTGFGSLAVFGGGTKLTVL
Result: 39.7

Problem: Name the reported Kd value associated with the binder unnamed (protein) chain 1: EVQLVQSGAEVKKPGESLRISCKGSGYSFSNYWISWVRQMPGKGLEWMGKIYPGDSYTNYSPSFQGQVTISADKSISTAYLQWSSLKASDTAMYYCARGYGLFDYWGQGTLVTVSS chain 2: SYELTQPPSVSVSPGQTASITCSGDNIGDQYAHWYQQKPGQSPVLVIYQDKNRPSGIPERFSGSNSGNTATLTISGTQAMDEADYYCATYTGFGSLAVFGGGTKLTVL
Result: 145

Problem: Name the reported Kd value associated with the binder unnamed (protein) chain 1: EVQLVQSGAEVKKPGESLRISCKGSGYSFSTYWISWVRQMPGKGLEWMGKIYPGDSYTNYSPSFQGQVTISADKSISTAYLQWSSLKASDTAMYYCTRGTGIFDYWGQGTLVTVSS chain 2: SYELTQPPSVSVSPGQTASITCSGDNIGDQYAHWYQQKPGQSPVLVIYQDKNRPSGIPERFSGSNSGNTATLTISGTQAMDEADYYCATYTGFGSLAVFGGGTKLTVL
Result: 92

Problem: Name the reported Kd value associated with the binder unnamed (protein) chain 1: EVQLVQSGAEVKKPGESLRISCKGSGYSFSTYWISWVRQMPGKGLEWMGKIYPGDSYTNYSPSFQGQVTISADKSISTAYLQWSSLKASDTAMYYCTRGSGLFDYWGQGTLVTVSS chain 2: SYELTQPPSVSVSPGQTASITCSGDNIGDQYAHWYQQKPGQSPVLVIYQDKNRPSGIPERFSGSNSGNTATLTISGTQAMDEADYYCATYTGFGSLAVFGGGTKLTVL
Result: 225
